Measured TGI by item
Test system: OVCAR-4 ovarian
Assay: NCI tumour cell line growth inhibition, 48 h

compound: COC(=O)N/N=C(\C)C(CN(C)C)C(c1ccccc1)c1c(O)c2ccccc2oc1=O (centres undefined)
TGI: > 100 µM
--
compound: CCC(C)(O)c1cn(-c2ccc(S(=O)(=O)O)cc2)nn1 (centres undefined)
TGI: > 100 µM
--
compound: O=C(Nc1ccc2c(c1)OCCO2)C(=O)c1c[nH]c2ccccc12
TGI: > 100 µM
--
compound: CC(=O)NC1(C)C(C)C2CC1C(C)C2(C)C (centres undefined)
TGI: > 100 µM
--
compound: CCOc1cc(-c2nc3cc(F)ccc3s2)ccc1O
TGI: 43.2 µM
--
compound: COc1ccc2c(c1OC)C(=O)O[C@@H]2[C@H]1c2c(cc3c(c2OC)OCO3)CCN1C
TGI: > 100 µM
--
compound: O=c1[nH]c(=O)n(C2CC(O)C(CO)O2)cc1COCC(F)(F)F (centres undefined)
TGI: > 100 µM
--
compound: Cn1cncc1-c1c(F)cncc1NC(=O)c1c(N)nn2cc(F)cnc12
TGI: 14.4 µM
--
compound: O=C(NC(=O)c1cn(CCN2CCN(C(=O)NCCCCCCNC(=O)N3CCN(CCn4cc(C(=O)NC(=O)OCc5ccccc5)c(=O)[nH]c4=O)CC3)CC2)c(=O)[nH]c1=O)OCc1ccccc1
TGI: > 100 µM
--
compound: COc1cccc2cc(C(=O)NC34CC5CC(CC(C5)C3)C4)c(=N)oc12
TGI: > 100 µM
--
compound: N#Cc1c(-c2ccccc2)cc(Nc2ccc(Cl)cc2)n2c1nc1ccccc12
TGI: > 100 µM
--
compound: CN1CCN(CCCOc2cccc3nc(Nc4ccc(F)c(F)c4)ccc23)CC1
TGI: 15.2 µM
--
compound: COc1cc(-c2nccc3cc4c(cc23)OCO4)cc(OC)c1OC
TGI: > 100 µM
--
compound: COc1ccc(/C=C/C(=O)Oc2ccccc2OC)cc1
TGI: > 60.7 µM
--
compound: COc1cc(OC)c(C2(c3c(OC(C)C)c(=O)c3=O)SCCCS2)cc1OC
TGI: > 100 µM
--
compound: COC(=O)CCC(=O)N1CC1C (centres undefined)
TGI: > 100 µM
--
compound: Nc1nc2c(ccc3ccccc32)s1
TGI: > 100 µM
--
compound: Cc1ccc(O)c(NC2=C(Cl)C(=O)N(Cc3ccccc3)C2=O)c1
TGI: > 100 µM
--
compound: CCCCCCCCCCOC(=O)c1cc[n+](C)cc1
TGI: 33 µM
--
compound: CCOC(=O)/C=C(/C(=O)OCC)n1ccc(=O)n(Cc2cnnn2CCCCOC(C)=O)c1=O
TGI: > 100 µM
--
compound: COc1cc2c3c(c1OC)C(=O)C=C3N(S(=O)(=O)c1ccc(C)cc1)CC2
TGI: > 100 µM
--
compound: NCCOc1ncccc1/C=C1\c2ccccc2-c2ccc([N+](=O)[O-])cc21
TGI: 0.827 µM
--
compound: Cc1ccc(S(=O)(=O)NC(=O)NC(CCC(N)=O)C(=O)O)cc1 (centres undefined)
TGI: > 100 µM
--
compound: C/C(O[Si](C(C)C)(C(C)C)C(C)C)=C(\C)C(=O)N(C)c1ccccc1Cl
TGI: > 100 µM
--
compound: COc1cc(OC)c(OC)cc1/C=C/c1cc[n+](C)c2ccccc12
TGI: > 100 µM
--
compound: NS(=O)(=O)c1nnc(NS(=O)(=O)c2ccc([N+](=O)[O-])cc2)s1
TGI: > 100 µM
--
compound: C/C(O)=C(\C=NC(=S)c1ccncc1)C(=O)Nc1ccccc1C
TGI: > 100 µM
--
compound: CC1=C(C#N)C(/C=C(\Cl)c2ccc(F)cc2)C(C#N)=C(C)N1
TGI: > 100 µM
--
compound: C[C@H]1O[C@@H](C(C)(C)C)OC(=O)[C@@H]1C(OC(=O)c1ccccc1)c1cccc2ccccc12 (some centres undefined)
TGI: > 100 µM
--
compound: Nc1ccc(-c2ccc3ncc4ccc(=O)n(-c5cccc(C(F)(F)F)c5)c4c3c2)cn1
TGI: 0.0337 µM
--
compound: COc1cc2c(c(OC)c1OC)-c1ccc(SC)c(=O)cc1C(CC(=O)Oc1cccc(F)c1)C2 (centres undefined)
TGI: > 100 µM
--
compound: O=C1NC(=Nc2ccccc2)C(=Nc2ccccc2)N1c1ccccc1
TGI: 33.1 µM
--
compound: COc1ccc(-c2n[nH]nc2-c2cc(OC)c3c(c2)OCO3)cc1
TGI: > 100 µM
--
compound: OC(COc1ccccc1)CN1CCCCC1 (centres undefined)
TGI: > 100 µM
--
compound: CN1NC(c2ccccc2)=C(C#N)C(=O)CC1c1ccc(Br)cc1 (centres undefined)
TGI: > 100 µM
--
compound: COC(=O)CC(=O)NCC1=CCC(=O)CC1
TGI: > 100 µM
--
compound: O=[N+]([O-])C(C(Cl)=C(Cl)Cl)=C(n1cncn1)n1cncn1
TGI: 57 µM
--
compound: O=c1[nH]nc(-c2ccc(F)cc2)cc1-c1ccccc1
TGI: > 100 µM
--
compound: C[n+]1cn(-c2nc3ccccc3nc2[N-]S(=O)(=O)c2ccccc2)c2ccccc21
TGI: > 100 µM

###

Test system: SF-539 CNS
Assay: NCI tumour cell line growth inhibition, 48 h; in the data active = GI50 below about 0.43 µM; inactive = the rest
Outcome codes: Yes for active, No for inactive

compound: COc1ccc(-c2nsc3c2NC(=O)CC3c2cccc(Cl)c2)cc1 (configuration not stated)
assigned class: No
//
compound: COc1ccc(-c2nn3ncccc3c2-c2ccnc(Nc3ccc4c(c3)OCCO4)n2)cc1
assigned class: No
//
compound: CCc1nn2ncccc2c1-c1ccnc(NC2CC2)n1
assigned class: No
//
compound: CC1=C(C#N)C(/C=C(\Cl)c2ccc(F)cc2)C(C#N)=C(C)N1
assigned class: No
//
compound: CCN(CC)c1ccc(/C=N/NC(=O)CSc2nc3ccccc3c(=O)n2Cc2ccc(S(N)(=O)=O)cc2)c(O)c1
assigned class: No
//
compound: O=C(O)Cn1ccc2ccccc21
assigned class: No
//
compound: O=C(/C=C\n1cnc(-c2cc(C(F)(F)F)cc(C(F)(F)F)c2)n1)N1CC(F)(F)C1
assigned class: Yes
//
compound: CC12OC(C(=O)C13CCC3)C1C(=O)c3ccc4c(ccc5ccccc54)c3C(=O)C12 (configuration not stated)
assigned class: No
//
compound: O=C(Oc1ccccc1)C(Br)C(Br)c1ccccc1 (configuration not stated)
assigned class: No
//
compound: C[C@H](NC(=O)c1c(C(F)F)nn(C)c1Oc1cccc(C(F)(F)F)c1)c1ccc(C(=O)O)cc1
assigned class: No
//
compound: COc1cc(CN(c2ccc(C)cc2)C2OC(=O)c3ccccc32)cc(OC)c1OC (configuration not stated)
assigned class: Yes
//
compound: O=C1Nc2ccccc2/C1=C/c1cn(CC(O)Cn2cc(/C=C3\C(=O)Nc4ccccc43)c3ccccc32)c2ccccc12 (configuration not stated)
assigned class: No

###

Tested on: NCI-H23 lung
Test: NCI tumour cell line growth inhibition, 48 h

compound: Cc1cc2c(cc1CO)N1Cc3cc(C)c(CO)cc3N(C2)C1
target entity: NCI-H23 lung
TGI: > 100 µM

compound: Cc1cc(N(CCC#N)CCC#N)ccc1/C(N=Nc1ccc([N+](=O)[O-])cc1)=N\NC(=O)c1ccccc1
target entity: NCI-H23 lung
TGI: > 100 µM

compound: NC(N)=N/N=C/c1c(-c2cc([N+](=O)[O-])c(Cl)cc2Cl)nc2n1CCS2
target entity: NCI-H23 lung
TGI: 48.3 µM

compound: Cc1c(C)c2c(c(C)c1OCC(=O)O)CC[C@@](C)(CCC[C@@H](C)CCC[C@@H](C)CCCC(C)C)O2
target entity: NCI-H23 lung
TGI: 200 µM

compound: O=C(NC1(C(=O)O)CCCC1)c1ccccc1
target entity: NCI-H23 lung
TGI: > 100 µM

compound: CCOc1ccc(C(C)=O)cc1NC(=O)c1cccc(-c2nnn(CC)n2)c1
target entity: NCI-H23 lung
TGI: 19 µM

compound: CNC(=S)/C(C#N)=C(\N)N1CCCC1
target entity: NCI-H23 lung
TGI: > 100 µM

compound: CNCCCNc1c2ccccc2nc2cccc([N+](=O)[O-])c12
target entity: NCI-H23 lung
TGI: 0.00564 µM

compound: Cc1cc(NS(=O)(=O)c2ccc(Nc3c4ccccc4nc4c(C(=O)NCCO)cccc34)cc2)no1
target entity: NCI-H23 lung
TGI: > 100 µM

compound: CCOc1cc(-c2nc3cc(F)ccc3s2)ccc1O
target entity: NCI-H23 lung
TGI: 33.8 µM

compound: O=C(Nc1ccc2cc3ccccc3cc2c1)c1cc2c(cc1Cl)Sc1nccn1S2(=O)=O
target entity: NCI-H23 lung
TGI: > 100 µM

compound: CCOC(=O)C1(C(=O)OCC)C=C(c2ccccc2)N(C2OC(COC(C)=O)C(OC(C)=O)C(OC(C)=O)C2OC(C)=O)C1=S (stereo unspecified)
target entity: NCI-H23 lung
TGI: > 100 µM

compound: COc1cc2c3c(c1OC)C(=O)C=C3N(S(=O)(=O)c1ccc(C)cc1)CC2
target entity: NCI-H23 lung
TGI: > 100 µM

compound: Cc1ccccc1N=Nc1c(-c2ccccc2)nn(C(=O)CC(=O)Nc2cccc(Cl)c2)c1-c1ccccc1
target entity: NCI-H23 lung
TGI: > 31.6 µM

compound: CC1(C)OC2OC(COC(=O)c3ccc(C#N)cc3)C3OC(C)(C)OC3C2O1 (stereo unspecified)
target entity: NCI-H23 lung
TGI: > 75 µM

compound: CC/C(Cc1ccccc1)=C(/c1ccc(O)cc1)c1ccc(OCCN2CCCC2)cc1
target entity: NCI-H23 lung
TGI: 3.53 µM

compound: COC(=O)CCC(=O)N1CC1C (stereo unspecified)
target entity: NCI-H23 lung
TGI: > 100 µM

compound: COc1cc(OC)c(C2(c3c(OC(C)C)c(=O)c3=O)SCCCS2)cc1OC
target entity: NCI-H23 lung
TGI: > 100 µM

compound: C=C(CO)CC(/C=C(\C)CC/C=C(\C)CCl)OC(C)=O (stereo unspecified)
target entity: NCI-H23 lung
TGI: > 100 µM

compound: CCOC(=O)/C=C(/C(=O)OCC)n1ccc(=O)n(Cc2cnnn2CCCCOC(C)=O)c1=O
target entity: NCI-H23 lung
TGI: > 100 µM

compound: Cc1ccc(SCC(OCn2cnc3c(Cl)nc(N)nc32)[C@H](C)F)cc1 (stereo partly specified)
target entity: NCI-H23 lung
TGI: > 100 µM

Hey, just so you know, these numbers are from PubChem BioAssay (NCI).
